# experiment.summary: chemical genetic growth profiling, strain panel (AID 1159580);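 note: tested at 20 µM; growth read once vehicle control cultures reached saturation at 30 °C; 1 = growth at the plate median or of vehicle wells; lower values mean less growth of the strain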
# conditions: S. cerevisiae deletion strains, growth OD, locus YGL078C, strain dbp3, stronger effect = lower value
Among all 5,500 compounds or so, about 2,000 (36%) were called active. About 18% were inconclusive and are not listed. The list shows a part of the results.
Listed below: normalized growth values for each entry.
Field format: numeric only.

1. CN1CCCCC1c1ccc(-c2cccnc2)nc1 (stereo not drawn)
0.996
2. CC(C)c1cc2c(c(O)c1O)[C@@]1(C(=O)O)CCCC(C)(C)C1CC2 (stereo partly drawn)
0.957
3. COC(=O)c1cc(OC)c(=O)c2c(OC)c(OC)ccc2c1
0.995
4. O=c1c(O)c(-c2ccccc2)oc2ccccc12
0.991
5. O=c1c(O)cccc2cc(O)c(O)c(O)c12
0.841
6. O=C1c2cccc(O)c2C(=O)c2c(O)cccc21
0.874

Could you now look at the following compound, please?
Measured normalized growth, CC(=O)Oc1c(C)c(C)c2c(c1C)CCC(C)(CCCC(C)CCCC(C)CCCC(C)C)O2 (stereo not drawn) : 0.993

Recorded values, source PubChem BioAssay AID1159580.
